// data source = patent US10934275B2

# STUDY_TARGET: IRE1α (Homo sapiens, UniProt O75460)
# Sequence (O75460 19-977): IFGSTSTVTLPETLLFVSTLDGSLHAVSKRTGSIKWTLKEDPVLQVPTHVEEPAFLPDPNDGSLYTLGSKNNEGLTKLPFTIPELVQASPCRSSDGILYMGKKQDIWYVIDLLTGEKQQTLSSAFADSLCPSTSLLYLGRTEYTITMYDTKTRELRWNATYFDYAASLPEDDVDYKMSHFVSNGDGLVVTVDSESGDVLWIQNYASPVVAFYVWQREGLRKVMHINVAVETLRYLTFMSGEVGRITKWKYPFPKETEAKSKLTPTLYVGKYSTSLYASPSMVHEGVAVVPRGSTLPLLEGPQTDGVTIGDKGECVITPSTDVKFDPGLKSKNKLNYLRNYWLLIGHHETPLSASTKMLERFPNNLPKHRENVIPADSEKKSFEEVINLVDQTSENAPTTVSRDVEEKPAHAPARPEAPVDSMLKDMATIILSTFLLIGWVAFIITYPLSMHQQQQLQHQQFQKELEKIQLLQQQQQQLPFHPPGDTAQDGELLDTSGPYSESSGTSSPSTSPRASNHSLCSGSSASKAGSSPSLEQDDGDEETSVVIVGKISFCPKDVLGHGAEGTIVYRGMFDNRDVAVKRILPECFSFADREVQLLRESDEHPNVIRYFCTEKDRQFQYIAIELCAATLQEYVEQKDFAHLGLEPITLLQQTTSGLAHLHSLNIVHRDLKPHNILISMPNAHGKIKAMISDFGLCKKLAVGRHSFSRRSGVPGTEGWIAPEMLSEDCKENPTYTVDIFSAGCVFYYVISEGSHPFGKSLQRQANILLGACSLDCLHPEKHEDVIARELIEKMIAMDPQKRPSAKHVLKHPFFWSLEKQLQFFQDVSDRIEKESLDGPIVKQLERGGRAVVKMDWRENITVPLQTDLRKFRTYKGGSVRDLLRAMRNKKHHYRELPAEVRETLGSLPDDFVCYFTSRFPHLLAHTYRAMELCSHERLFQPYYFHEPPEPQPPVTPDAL
# PROTOCOL_DETAILS: IRE1α Endoribonuclease Nanoluciferase Assay (XBP1 luciferase reporter, 293T cells)
# Format: cell-based
# Parameters: endogenous in cells; host or cells: 293T cells
# MEASUREMENT_SETUP: 293T cells transfected with XBP1 luciferase reporter plasmid, stressors +/- inhibitors
# Procedure: Compounds disclosed herein were assessed for disruption of IRE-1 signaling using a IRE1α Endoribonuclease Nanoluciferase Assay. Briefly, 2.5×10^6 293T cells were seeded in a 10 cm^2 tissue culture plate. About 24 hours later, the cells were transfected with Effectene. […] Plates were read on luminometer, 1000 ms integration time per well. […] Plates were read on luminometer, 1000 ms second integration time per well. […]
Structures can show the parent of a compound that is named as a salt.
Field: EC50. Provide a value for each of the compounds that follow.

Short answer for Cc1cc(-c2cc(NC(=O)Nc3ccc(CN4CCN(C)CC4)c(C(F)(F)F)c3)nn2C)cc2cnc(N)nc12 [Compound 12] : EC50 was > 0.1 µM

Entry under test: CCc1cc(-c2cc(NC(=O)Nc3ccc(CN4CCN(C)CC4)c(C(F)(F)F)c3)nn2C)cc2cnc(N[C@H]3CC[C@H](N)CC3)nc12 [Compound 31] . Its EC50 was ≤ 0.005 µM

Please fill in: EC50 reported for CN1CCN(Cc2ccc(NC(=O)Nc3cc(-c4ccc5nc(NC6CCNCC6)ncc5c4)n(C)n3)cc2C(F)(F)F)CC1 [2; TFA] = > 0.1 µM

Reported EC50 ( CN1CCN(Cc2ccc(NC(=O)Nc3cc(-c4ccc5nc(NC6CCCCC6)ncc5c4)n(C)n3)cc2C(F)(F)F)CC1 [Compound 5] ) = > 0.1 µM
